target: recombinant purified human EHMT2 913-1193 (Homo sapiens, UniProt Q96KQ7); construct: Recombinant purified human EHMT2 913-1193 (55 μM) synthesized by Viva was used for all experiments; purchased Viva; experiment: EHMT2 enzyme assay on histone peptide substrate (3H-SAM Flashplate); format: biochemical; details: read-out: EHMT2 PEP (IC50 μM)
Sequence (Q96KQ7 913-1193): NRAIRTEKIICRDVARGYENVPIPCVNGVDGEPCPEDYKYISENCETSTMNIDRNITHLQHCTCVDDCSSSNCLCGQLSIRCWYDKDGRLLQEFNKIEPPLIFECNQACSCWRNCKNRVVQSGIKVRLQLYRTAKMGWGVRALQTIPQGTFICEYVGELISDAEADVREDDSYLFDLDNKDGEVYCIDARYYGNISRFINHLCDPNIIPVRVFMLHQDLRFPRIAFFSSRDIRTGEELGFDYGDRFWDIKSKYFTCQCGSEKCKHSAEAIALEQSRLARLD
measured endpoint: IC50

CNc1cc(C2CCOCC2)c2cc(OC)c(-n3cc(CN(C)C)nn3)cc2n1 [Compound 116] | 1 to 10 µM
CNCc1cnn(-c2c(Cl)ccc(Nc3nc(C)cc(NC)n3)c2Cl)c1 [Compound 327] | < 0.1 µM
CNc1cc(C)nc(Nc2ccc(OC)c(-n3ncc4c3CCNC4)c2)n1 [Compound 113] | < 0.1 µM
CNC1=Nc2cc(-c3cc4[nH]ccc4cn3)c(OC)cc2C12CCC2 [Compound 214] | < 0.1 µM

Now for another entry.
Challenge: Find the recorded IC50 belonging to CNCc1cnn(-c2cc3c(cc2OC)C2(CCC2)C(N)=N3)c1 [Compound 186] and report it.
Response given: < 0.1 µM

meta.source: patent US20220235065A1
